- Test system: MDA-MB-468 breast
- ASSAY_COMMENT: NCI-60 one-dose screen, 48 h (100 = growth as untreated, 0 = no growth, -100 = all killed)
- RUN_CONDITIONS: 10 µM unless noted
The panel holds about 83,000 compounds, 20% with a hit somewhere; the sample as a whole holds those more often. Calls of active or inactive are those of the source. The calls were made as follows: active = growth percent below 10; inactive = the rest.
Give measured growth for each item. Keep answers brief.

The reported growth of the molecule O=C(CN1CCN(c2cc3c(cc2F)c(=O)c(C(=O)O)cn3C2CC2)CC1)Nc1ccc(C(=O)/C=C/c2ccccc2)cc1 was 33.8% (inactive)

The reported growth of the molecule NC(CO)(CO)c1ccccc1 was 79.9% (inactive)

The reported growth of the molecule Cc1nc2cc(Nc3nc(Nc4ccc(F)cc4)nc(-c4cccs4)n3)ccc2n1Cc1ccccc1 was 33.2% (inactive)

The reported growth of the molecule CCCCNc1ccc2c3c1cccc3c(=O)n1c3ccccc3nc21 was -12.2% (active)

The reported growth of the molecule C=C(C)C1CCC2(C(=O)O)CCC3(C)C(CCC4C5(C)CCC(OC(=O)NCc6ccccc6)C(C)(C)C5CCC43C)C12 (stereo not drawn) was 35.3% (inactive)

The reported growth of the molecule COc1cc(/C=N/O)nc(-c2ccccn2)c1 was -16.9% (active)

The reported growth of the molecule Clc1cccc(/C=N/Nc2nc(N/N=C/c3cccc(Cl)c3)nc(N3CCOCC3)n2)c1 was 30.8% (inactive)

The reported growth of the molecule Cc1cccc(NCc2cn(-c3ccc(C(=O)O)cc3)nc2-c2ccc(C(=O)O)cc2)n1 was 101% (inactive)

The reported growth of the molecule O=[N+]([O-])c1ccc(N=Nc2ccc(O)cc2O)cc1 was -4.48% (active)

The reported growth of the molecule COC1CC(N)C2OC(c3ccccc3)OCC2O1 (stereo not drawn) was 109% (inactive)

The reported growth of the molecule CC(C)(C)c1ccc(S(=O)(=O)Oc2ccc(-c3sc4cc(OS(=O)(=O)c5ccc(C(C)(C)C)cc5)ccc4c3C(=O)c3ccc(OCCN4CCCCC4)cc3)cc2)cc1 was 90% (inactive)

The reported growth of the molecule CC1(C)CC(=O)C2=C(C1)N(c1ccc(OC(F)(F)F)cc1)C(N)=C(C#N)C2c1ccc(Br)cc1F (stereo not drawn) was 55.7% (inactive)

The reported growth of the molecule CCc1nc(C)cn1C(=O)OCc1nc2nc(Cl)nc(N3CCOCC3)c2[nH]1 was -54.6% (active)

The reported growth of the molecule CC(=O)OCC(=O)O[C@@H]1C[C@]2(C(C)C)O[C@@]1(C)[C@@H]1CC[C@@H](C)[C@H]1[C@@H]2OC(=O)/C=C/c1ccccc1 was 83.7% (inactive)

The reported growth of the molecule N/C(=N\c1nc2c(Br)cccc2s1)C(Br)Br was -58.8% (active)

The reported growth of the molecule Cc1nc(NN)c([N+](=O)[O-])c(NN)n1 was 122% (inactive)

The reported growth of the molecule CCc1cccc(Sc2cc(C(=O)N3Cc4ccc(OCCN(C)C)cc4C3)ccc2O)c1 was 30.6% (inactive)

The reported growth of the molecule C=C1C(=O)O[C@H]2[C@H]1CC/C(COC(=O)NCc1nc3ccccc3[nH]1)=C\CC[C@@]1(C)O[C@@H]21 was 43.7% (inactive)

The reported growth of the molecule CCCn1ccnc1C(O)c1ccc(OCc2ccccc2)c(OC)c1 (stereo not drawn) was 90.5% (inactive)

The reported growth of the molecule COc1cc(C)c(Cl)cc1C1=NN(c2ccc(S(N)(=O)=O)cc2)C(/C=C/c2ccccc2)C1 (stereo not drawn) was 41.2% (inactive)

The reported growth of the molecule Cn1cnc([N+](=O)[O-])c1Sc1ncn[nH]1 was 73.5% (inactive)

The reported growth of the molecule COc1ccc(/C=C2\COc3ccc(O)c(O)c3C2=O)c(OC)c1 was 27.9% (inactive)

The reported growth of the molecule O=S1(=O)OC(c2cc(Cl)c(O)c(Br)c2)(c2cc(Cl)c(O)c(Br)c2)c2ccccc21 was 118% (inactive)

The reported growth of the molecule Cc1ccc(NC(=O)c2ccccc2Cl)cc1 was 114% (inactive)

The reported growth of the molecule Nc1c(C(=O)Nc2cccc3c2OCCO3)sc2nc3c(cc12)C(=O)CCC3 was 18.7% (inactive)

The reported growth of the molecule O=C1/C(=C/c2ccc(Br)cc2)C=C(c2ccccc2)N1CCc1ccccc1 was 45% (inactive)

The reported growth of the molecule COc1cc2cc(NCc3ccncc3)nc(C)c2cc1OC was 87.7% (inactive)

The reported growth of the molecule Cc1ccc(C(=O)Nc2ccc(CNCCN3CCOCC3)c(C(F)(F)F)c2)cc1C#Cc1cnc2cccnn12 was -21% (active)

The reported growth of the molecule COc1cc(-c2nn(-c3cccc(NC(=O)NCCNS(=O)(=O)c4ccc(Cl)cc4)c3)cc2-c2ccncc2)ccc1Cl was -35.8% (active)

The reported growth of the molecule O=C1/C(=C/c2cccc([N+](=O)[O-])c2)COc2ccc(O)c(O)c21 was -47.8% (active)

The reported growth of the molecule CCOC(=O)C(=Cc1cccc(C#N)c1)C(=O)OCC was 43% (inactive)

The reported growth of the molecule CC(C)(C)C(=O)/C=C/c1ccc([N+](=O)[O-])cc1 was 45.5% (inactive)

The reported growth of the molecule CCN1C(=O)N(c2ccccc2)C2NC(=S)N(/N=C/C=C/c3ccccc3)C21 (stereo not drawn) was 5.41% (active)

The reported growth of the molecule C#CC#CC#CC#CC#CC#CC#CC#CCC1OC[C@H](COC(=O)O[C@@H](C(=O)O[C@H]2C[C@@]3(O)[C@@H](OC(=O)c4ccccc4)[C@@H]4[C@]5(OC(C)=O)CO[C@@H]5C[C@H](O)[C@@]4(C)C(=O)[C@H](OC(C)=O)C(=C2C)C3(C)C)[C@@H](NC(=O)c2ccccc2)c2ccccc2)O1 (stereo partly drawn) was 8.69% (active)

The reported growth of the molecule O=C1c2c(c3c4cc(O)ccc4oc3c3[nH]c4ccccc4c23)C(=O)N1O was -48.7% (active)

The reported growth of the molecule Cc1cn(C)cn1 was 112% (inactive)

The reported growth of the molecule COc1cc(C(=C2O[C@@H]([C@H]3COC(C)(C)O3)[C@H]3OC(C)(C)O[C@@H]23)c2cc(OC)c(OC)c(OC)c2)cc(OC)c1OC was 106% (inactive)

The reported growth of the molecule C1Cc2onc(-c3noc4c3CCC4)c2C1 was 110% (inactive)
